- Test system: KRAS-mutant PDC multicell tumor spheroid viability;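 note: viability read after seven days of drug exposure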
- Assay Overview: Anticancer human tumor 521955-158-R2-J5-PDC patient-derived pancreatic carcinoma cell line growth inhibition [KRAS2]
- Assay Conditions: second compound 10 µM; first compound 3.16 µM; active compounds read low
Please respond with reported viability, T/C for every item in the list.
Numbers only, in %.

Molecule	Test System	Assay Readout	Unit Abbrev	Endpoint Result
Cn1nccc1Nc1nccc(-c2cc3c(s2)C(C)(C)N(CCN2CCOCC2)C3=O)n1 + COc1cc2nc(C)nc(NC(C)c3cc(N)cc(C(F)(F)F)c3)c2cc1OC1CCOC1	KRAS-mutant PDC multicell tumor spheroid viability	viability, T/C	%	1.96
O=C(c1cc(Cc2n[nH]c(=O)c3ccccc23)ccc1F)N1CCN(C(=O)C2CC2)CC1 + COc1cc2nc(C)nc(NC(C)c3cc(N)cc(C(F)(F)F)c3)c2cc1OC1CCOC1	KRAS-mutant PDC multicell tumor spheroid viability	viability, T/C	%	86.8
CC1OCC2(CCN(c3cnc(Sc4ccnc(N)c4Cl)c(N)n3)CC2)C1N (stereo not drawn) + C=CC(=O)N1CCN(c2nc(=O)n(-c3c(C)ccnc3C(C)C)c3nc(-c4c(O)cccc4F)c(F)cc23)C(C)C1	KRAS-mutant PDC multicell tumor spheroid viability	viability, T/C	%	54.6
Cn1nccc1Nc1nccc(-c2cc3c(s2)C(C)(C)N(CCN2CCOCC2)C3=O)n1 + C=CC(=O)N1CCN(c2nc(=O)n(-c3c(C)ccnc3C(C)C)c3nc(-c4c(O)cccc4F)c(F)cc23)C(C)C1	KRAS-mutant PDC multicell tumor spheroid viability	viability, T/C	%	41.1
CCNC(=O)CC1N=C(c2ccc(Cl)cc2)c2cc(OC)ccc2-n2c(C)nnc21 (stereo not drawn) + COc1cc2nc(C)nc(NC(C)c3cc(N)cc(C(F)(F)F)c3)c2cc1OC1CCOC1	KRAS-mutant PDC multicell tumor spheroid viability	viability, T/C	%	18.6

Give viability, T/C for all molecules that follow.
1. CC1COCCN1c1cc(-c2ccnn2C)c2ccnc(-c3ccn[nH]3)c2n1 (stereo not drawn) + CC1OCC2(CCN(c3cnc(Sc4ccnc(N)c4Cl)c(N)n3)CC2)C1N
2. CC1(C)CCC(CN2CCN(c3ccc(C(=O)NS(=O)(=O)c4ccc(NCC5CCOCC5)c([N+](=O)[O-])c4)c(Oc4cnc5[nH]ccc5c4)c3)CC2)=C(c2ccc(Cl)cc2)C1 + C=CC(=O)N1CCN(c2nc(=O)n(-c3c(C)ccnc3C(C)C)c3nc(-c4c(O)cccc4F)c(F)cc23)C(C)C1
3. O=C(c1cc(Cc2n[nH]c(=O)c3ccccc23)ccc1F)N1CCN(C(=O)C2CC2)CC1 + C=CC(=O)N1CCN(c2nc(=O)n(-c3c(C)ccnc3C(C)C)c3nc(-c4c(O)cccc4F)c(F)cc23)C(C)C1
4. COC(=O)c1ccc2c(C(=Nc3ccc(N(C)C(=O)CN4CCN(C)CC4)cc3)c3ccccc3)c(O)[nH]c2c1 + COc1cc2nc(C)nc(NC(C)c3cc(N)cc(C(F)(F)F)c3)c2cc1OC1CCOC1
5. CC1(C)CCC(CN2CCN(c3ccc(C(=O)NS(=O)(=O)c4ccc(NCC5CCOCC5)c([N+](=O)[O-])c4)c(Oc4cnc5[nH]ccc5c4)c3)CC2)=C(c2ccc(Cl)cc2)C1 + COc1cc2nc(C)nc(NC(C)c3cc(N)cc(C(F)(F)F)c3)c2cc1OC1CCOC1

**A:**
1: 15.6; 2: 40.9; 3: 68.9; 4: 0.17; 5: 2.22
